System: 699152-130-R-J1-PDC complex spheroid viability;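 further: spheroids exposed to agents for 7 days before viability reading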
Procedure summary: Anticancer human tumor 699152-130-R-J1-PDC patient-derived pancreatic carcinoma cell line growth inhibition [POLQ]
Conditions: curve of first compound; second compound 0.0316 µM
pIC50: −log10 of the molar value.
Reported pIC50 values for the following compounds.

Here are 4 compounds together with their reported answers.
Compound	Property name	Assay value
O=c1[nH]cc(F)c(=O)[nH]1 + Nc1ccc(C#CCN(C(=O)Cc2ncc(C(F)(F)F)cc2C(F)(F)F)c2ccc(F)cc2)nn1	pIC50	< 5.00
CC(=O)O[C@H]1C(=O)[C@@]2(C)[C@H]([C@H](OC(=O)c3ccccc3)[C@]3(O)C[C@H](OC(=O)[C@H](O)[C@@H](NC(=O)c4ccccc4)c4ccccc4)C(C)=C1C3(C)C)[C@]1(OC(C)=O)CO[C@@H]1C[C@@H]2O + Nc1ccc(C#CCN(C(=O)Cc2ncc(C(F)(F)F)cc2C(F)(F)F)c2ccc(F)cc2)nn1	pIC50	< 5.52
COc1cccc2c1C(=O)c1c(O)c3c(c(O)c1C2=O)CC(O)(C(=O)CO)CC3OC1CC(N)C(O)C(C)O1 (stereo not given) + COC1C(OC(N)=O)C(O)C(Oc2ccc3c(O)c(NC(=O)c4ccc(O)c(CC=C(C)C)c4)c(=O)oc3c2C)OC1(C)C	pIC50	6.55
COc1cccc(OCCCN)c1-c1cc(Nc2cnc(C#N)cn2)n[nH]1 + Nc1ccc(C#CCN(C(=O)Cc2ncc(C(F)(F)F)cc2C(F)(F)F)c2ccc(F)cc2)nn1	pIC50	< 6.00

Shifting focus to the compound that follows.
What measured pIC50 goes with C=CC(=O)N1CCN(c2nc(=O)n(-c3c(C)ccnc3C(C)C)c3nc(-c4c(O)cccc4F)c(F)cc23)C(C)C1 (stereo not given) + COC1C(OC(N)=O)C(O)C(Oc2ccc3c(O)c(NC(=O)c4ccc(O)c(CC=C(C)C)c4)c(=O)oc3c2C)OC1(C)C ?
< 5.00
